Every entry's value here was drawn from paper PMC10397247.

Target: T1, 4H1804-bN
T1 chain: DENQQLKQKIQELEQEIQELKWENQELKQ
Experiment: two-hybrid library CCNG1;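 note: natural log of median RNA to DNA barcode read ratio; higher means stronger binding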
measured.metric: interaction score

# example entries with known answers
INSERT INTO assay_data (binder, endpoint_value) VALUES
  ('DENQQLKQKIQELEQEIQELKWENQELKQ [4H1804-bN]', 1.58),
  ('DENQQLKQENQELEQKIQELKWKIQELKQ [4H1710-bN]', -0.254),
  ('DENQQLKQEIQELKQENQELKWKIQELEQ [4H1629-bN]', -2.35),
  ('DENQQLEQKNQELEQKIQELKWEIQELEQ [4H1449-bN]', -2.5),
  ('DENQQLEQKIQELKQKNQELEWEIQELEQ [4H1393-bN]', -0.711),
  ('DENQQLEQKIQELKQEIQELKWKNQELEQ [4H1359-bN]', 0.796);

// next entry
Need interaction score, item DENQQLEQENQELKQEIQELEWKIQELKQ [4H1222-bN]
0.407
